- target: full-length HAQ STING (Homo sapiens (Human), UniProt Q86WV6, G230A/H232R/R293Q/R71H)
- Sequence (Q86WV6 other isoform, or with tags, fused parts or gaps, stated change not applied): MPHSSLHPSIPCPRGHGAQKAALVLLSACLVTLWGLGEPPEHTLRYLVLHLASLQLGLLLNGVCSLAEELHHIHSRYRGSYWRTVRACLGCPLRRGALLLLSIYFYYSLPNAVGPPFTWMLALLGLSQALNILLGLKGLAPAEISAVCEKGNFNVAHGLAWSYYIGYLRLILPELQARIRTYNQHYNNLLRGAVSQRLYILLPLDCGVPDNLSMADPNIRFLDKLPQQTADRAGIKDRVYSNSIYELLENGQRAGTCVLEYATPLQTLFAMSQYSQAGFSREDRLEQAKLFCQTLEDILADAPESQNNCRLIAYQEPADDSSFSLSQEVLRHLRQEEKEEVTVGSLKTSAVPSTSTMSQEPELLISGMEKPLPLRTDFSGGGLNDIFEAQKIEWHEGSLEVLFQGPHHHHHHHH
- assay-method-text: 3H-cGAMP filtration binding assay (HAQ STING)
- measurement-conditions: competition with tritiated cGAMP, HAQ STING membrane; read-out: EC50 (nM), 3H-cGAMP filtration binding assay for HAQ STING
value-type: EC50 (nM)

INSERT INTO assay_data (molecule, reported_value) VALUES
  ('Nc1ncnc2c1ncn2[C@@H]1O[C@@H]2COP(=O)(O)O[C@@H]3C[C@@H](COP(=O)(O)O[C@H]2[C@H]1O)O[C@H]3n1cnc2c(=O)[nH]cnc21', 2.7),
  ('Nc1nc2c(ncn2[C@@H]2O[C@@H]3COP(=O)(O)O[C@H]4[C@H](F)[C@H](n5cnc6c(=O)[nH]cnc65)O[C@@H]4COP(=O)(O)O[C@@H]2[C@@H]3F)c(=O)[nH]1', 49.9),
  ('Nc1ncnc2c1ncn2[C@@H]1O[C@@H]2COP(=O)(O)O[C@@H]3[C@H](O)[C@@H](COP(=O)(O)O[C@H]2[C@H]1O)O[C@H]3c1cnc2c(=O)[nH]cnn12', 63.8),
  ('Nc1nc2c(ccn2[C@@H]2O[C@@H]3COP(=O)(O)O[C@H]4[C@@H](O)[C@H](n5cnc6c(N)ncnc65)O[C@@H]4COP(=O)(O)O[C@@H]2[C@@H]3O)c(=O)[nH]1', 91),
  ('Nc1nc2c(ncn2[C@@H]2O[C@@H]3COP(=O)(O)O[C@H]4[C@@H](O)[C@H](c5cnc6c(N)ncnn56)O[C@@H]4COP(=O)(O)O[C@@H]2[C@@H]3O)c(=O)[nH]1', 3.2),
  ('Nc1nc2c(ncn2[C@@H]2O[C@@H]3COP(=O)(O)O[C@H]4[C@@H](O)[C@H](n5nnc6c(N)ncnc65)O[C@@H]4COP(=O)(O)O[C@@H]2[C@@H]3O)c(=O)[nH]1', 55.3);

A = CO[C@H]1[C@H]2OP(=O)(O)OC[C@H]3O[C@@H](n4cnc5c(O)ncnc54)[C@H](O)[C@@H]3OP(=O)(O)OC[C@H]1O[C@H]2n1cnc2c(=O)[nH]c(N)nc21
B = Nc1nc2c(ncn2[C@@H]2O[C@@H]3COP(=O)(O)O[C@H]4[C@H](Cl)[C@H](n5cnc6c(=O)[nH]cnc65)O[C@@H]4COP(=O)(O)O[C@@H]2[C@@H]3O)c(=O)[nH]1
C = N#Cc1cn([C@@H]2O[C@@H]3COP(=O)(O)O[C@@H]4[C@H](O)[C@@H](COP(=O)(O)O[C@H]3[C@H]2O)O[C@H]4n2cnc3c(=O)[nH]c(N)nc32)c2ncnc(N)c12
D = Nc1nc2c(ncn2[C@@H]2O[C@@]34COC3[C@@H]2OP(=O)(O)OC[C@H]2O[C@@H](n3cnc5c(N)ncnc53)[C@@H](O)C2OP(=O)(O)OC4)c(=O)[nH]1 (stereo partly shown)
Order by EC50, ascending. Write the labels, ordered according to the request. A, C, B, D
(A: 4.8 nM, C: 42.5 nM, B: 68.8 nM, D: 121 nM)
